# System name: Mutant CD33-GFP M10 (Y127A) on 293FT cells (UniProt P20138)
# Sequence (P20138 18-364 Y127A): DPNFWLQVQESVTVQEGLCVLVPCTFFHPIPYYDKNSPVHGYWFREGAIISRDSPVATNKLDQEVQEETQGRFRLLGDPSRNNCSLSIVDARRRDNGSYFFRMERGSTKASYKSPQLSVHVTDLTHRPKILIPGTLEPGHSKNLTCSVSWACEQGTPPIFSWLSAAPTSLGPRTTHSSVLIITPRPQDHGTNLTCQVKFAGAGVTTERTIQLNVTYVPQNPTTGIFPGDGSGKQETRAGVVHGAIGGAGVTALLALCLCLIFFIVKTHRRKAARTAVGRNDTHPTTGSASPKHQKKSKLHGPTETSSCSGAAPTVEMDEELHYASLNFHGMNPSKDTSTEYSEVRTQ
# Measurement protocol: FACS, mutant CD33-GFP on 293FT cells
Assay readout: FACS binding data
The answer should be a number; do not append a unit.

Task item: Note down FACS binding data recorded for sdCD33_2 (VHH) VHH: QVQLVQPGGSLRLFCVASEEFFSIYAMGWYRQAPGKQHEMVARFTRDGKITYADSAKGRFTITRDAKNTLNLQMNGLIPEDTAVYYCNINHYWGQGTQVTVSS
Reply: 98.5

Task item: Note down FACS binding data recorded for sdCD33_3 (VHH) VHH: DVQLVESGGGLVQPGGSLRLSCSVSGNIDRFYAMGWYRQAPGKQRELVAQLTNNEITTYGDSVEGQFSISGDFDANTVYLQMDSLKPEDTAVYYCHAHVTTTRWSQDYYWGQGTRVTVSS
Reply: 96.3

Task item: Note down FACS binding data recorded for sdCD33_6 (VHH, sdAb from a naive llama phage library; also called 416; sdAb416) VHH: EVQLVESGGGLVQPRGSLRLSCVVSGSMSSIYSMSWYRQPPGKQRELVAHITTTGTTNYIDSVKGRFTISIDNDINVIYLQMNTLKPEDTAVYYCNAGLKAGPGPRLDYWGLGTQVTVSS
Reply: 98.9

Task item: Note down FACS binding data recorded for sdCD33_9 (VHH, sdAb from a naive llama phage library; also called 426; sdAb426) VHH: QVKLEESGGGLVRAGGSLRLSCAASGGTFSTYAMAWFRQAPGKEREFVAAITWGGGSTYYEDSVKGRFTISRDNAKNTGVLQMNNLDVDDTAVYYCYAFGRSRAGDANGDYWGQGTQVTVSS
Reply: 96.1
